# studyTarget: EGF receptor autophosphorylation in A431 cells (Homo sapiens, UniProt P00533)
# Construct: A431 human epidermoid carcinoma cells were grown in 6-well plates; endogenous in cells; host or cells: A431 human epidermoid carcinoma cells
# Sequence (P00533 25-1210): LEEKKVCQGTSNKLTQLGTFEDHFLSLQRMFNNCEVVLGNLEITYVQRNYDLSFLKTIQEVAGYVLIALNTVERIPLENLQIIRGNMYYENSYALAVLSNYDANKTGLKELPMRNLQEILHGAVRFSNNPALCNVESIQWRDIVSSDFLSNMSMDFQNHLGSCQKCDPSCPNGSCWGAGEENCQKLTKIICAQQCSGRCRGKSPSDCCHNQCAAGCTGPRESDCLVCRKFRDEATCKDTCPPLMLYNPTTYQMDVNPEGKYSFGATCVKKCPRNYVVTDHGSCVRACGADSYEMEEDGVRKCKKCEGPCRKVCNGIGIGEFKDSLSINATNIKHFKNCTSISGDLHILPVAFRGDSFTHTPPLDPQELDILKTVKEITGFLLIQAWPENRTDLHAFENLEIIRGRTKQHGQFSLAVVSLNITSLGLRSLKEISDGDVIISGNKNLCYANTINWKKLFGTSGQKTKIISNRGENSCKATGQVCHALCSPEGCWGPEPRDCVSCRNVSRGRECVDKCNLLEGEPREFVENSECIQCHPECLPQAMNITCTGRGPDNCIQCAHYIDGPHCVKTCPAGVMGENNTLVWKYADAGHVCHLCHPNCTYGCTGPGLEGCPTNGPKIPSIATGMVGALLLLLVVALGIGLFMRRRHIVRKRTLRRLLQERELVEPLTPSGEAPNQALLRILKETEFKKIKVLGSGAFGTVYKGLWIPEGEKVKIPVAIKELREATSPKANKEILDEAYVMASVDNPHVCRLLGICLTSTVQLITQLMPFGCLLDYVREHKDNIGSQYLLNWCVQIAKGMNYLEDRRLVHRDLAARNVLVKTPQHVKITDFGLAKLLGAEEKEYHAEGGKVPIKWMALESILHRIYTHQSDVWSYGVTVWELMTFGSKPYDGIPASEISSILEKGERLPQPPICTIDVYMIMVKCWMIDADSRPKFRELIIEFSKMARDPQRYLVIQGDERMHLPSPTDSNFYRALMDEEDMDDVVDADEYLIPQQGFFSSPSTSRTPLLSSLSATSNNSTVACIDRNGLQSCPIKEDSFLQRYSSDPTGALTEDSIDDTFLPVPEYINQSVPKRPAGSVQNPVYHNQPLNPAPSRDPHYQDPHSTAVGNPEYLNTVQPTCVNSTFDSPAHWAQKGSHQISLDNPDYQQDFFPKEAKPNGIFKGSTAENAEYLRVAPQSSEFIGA
# protocolText: Autophosphorylation assay in A431 cells
# Assay type: cell-based
# conditionParameters: EGF-stimulated EGFR autophosphorylation in A431 cells
readoutType: pIC50
Worth noting: pIC50 values are minus log10 of concentrations stated in mol/L.

# count of solved cases: 4
compound	pIC50
C=CC(=O)N(CCCN1CCOCC1)c1ccc2c(Nc3cccc(Br)c3)ncnc2c1 [Example 4]	5.68
C=CC(=O)Nc1cccc2c1sc1c(Nc3cccc(Br)c3)ncnc12 [Example 43]	7.62
C=CC(=O)Nc1cc2c(Nc3cccc(C)c3)ncnc2cc1OCCCN1CCN(C)CC1 [Example 23]	7.74
C=CC(=O)Nc1cc2c(Nc3cccc(Br)c3)ncnc2cc1OCCCCN(C)C [Example 26]	8.52

get_value(item= Brc1cccc(Nc2ncnc3ccccc23)c1 [Example 7, N-(3-Bromo-phenyl)-quinazolin-4-yl-amine, reference compound] , readout=pIC50) returns 6.89

pIC50 reading for CC=CC(=O)Nc1ccc2c(Nc3cccc(Br)c3)ncnc2c1 [Example 9] : 7.70

// sample C=CC(=O)Nc1ccc2ncnc(Nc3cccc(Cl)c3)c2c1 [Example 18] , its pIC50 was 8.64

Sample C=CC(=O)Nc1ccc2c(Nc3cccc(C)c3)ncnc2c1 [Example 13] ; pIC50 observed: 7.05

response.value for C#CC(=O)Nc1cc2c(Nc3cccc(Br)c3)ncnc2cn1 [Example 53] (field: pIC50) = 7.28
